target: hGLP-1R (Homo sapiens, UniProt P43220); assay: cell-based or functional assay
Sequence (P43220 24-463): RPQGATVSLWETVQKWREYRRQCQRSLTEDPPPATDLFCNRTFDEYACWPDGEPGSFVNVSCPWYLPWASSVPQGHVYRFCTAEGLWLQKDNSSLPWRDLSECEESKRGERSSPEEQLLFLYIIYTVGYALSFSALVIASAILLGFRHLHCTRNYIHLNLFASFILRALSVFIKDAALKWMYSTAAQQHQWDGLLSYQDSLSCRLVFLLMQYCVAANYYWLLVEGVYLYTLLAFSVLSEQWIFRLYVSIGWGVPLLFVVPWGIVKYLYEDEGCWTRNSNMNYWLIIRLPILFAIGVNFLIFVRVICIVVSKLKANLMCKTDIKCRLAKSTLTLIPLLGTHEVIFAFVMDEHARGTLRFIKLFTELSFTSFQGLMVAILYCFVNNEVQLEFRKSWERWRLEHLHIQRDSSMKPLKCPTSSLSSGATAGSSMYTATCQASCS
In this section we review reported Relative cAMP EC50 values for a set of binders.

Binder	Relative cAMP EC50 / nM
YXQGTXTSDXXIXLDXKAQXXFIEYLIEGGPSSGEPPPSGT (synthetic construct; SITE 2: note = 2-Aminoisobutyric Acid; SITE 6: note = alpha-methyl-2-fluoro-L-phenylalanine; SITE 10: note = 3-(4-Pyridyl)-L-alanine; SITE 11: note = alpha-methyl-L-serine; SITE 13: note = alpha-methyl-leucine; SITE 16: note = L-ornithine; SITE 17: note = Lysine is chemically mo) [Example 502]	0.326
YXQGTXTSDXXIXLDXKAQXNFIEXLQEGGPSSGEPPPEGTGE (synthetic construct; SITE 2: note = 2-Aminoisobutyric Acid; SITE 6: note = alpha-methyl-2-fluoro-L-phenylalanine; SITE 10: note = 3-(4-Pyridyl)-L-alanine; SITE 11: note = alpha-methyl-L-serine; SITE 13: note = alpha-methyl-leucine; SITE 16: note = L-ornithine; SITE 17: note = Lysine is chemically mo) [Example 527]	0.446
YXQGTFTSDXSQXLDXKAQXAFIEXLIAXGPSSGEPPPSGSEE (non-natural residues (Aib, 4Pal, Orn, Me4Pal, αMeY); lipidated K; amide; synthetic construct; SITE 2: note = 2-Aminoisobutyric Acid; SITE 10: note = 3-(4-Pyridyl)-L-alanine; SITE 13: note = alpha-methyl-leucine; SITE 16: note = L-ornithine; SITE 17: note = Lysine is chemically modified through conjugation of the epsilon-amino group of the Lysine side chain with (gamma-Gl)) [Example 1094]	0.623
